Test system: MCF7
measurement.notes: Antiproliferative activity against human MCF7 cells after 48 hrs by MTT assay
Type: functional, cell-based
experimental.context: MCF7, 48 h
# maps each entry to its IC50
Expressed in µM, but write only the number.

Consider the following illustrative entries.
* CNC(=O)Nc1ccc(-c2nc3c(c(=O)n(C)c(=O)n3C)n2-c2ccc(OC)c(F)c2)cc1 | 11.6
* COc1ccc(-n2c(-c3ccc(NC(C)=O)cc3)nc3c2c(=O)n(C)c(=O)n3C)cc1 | 9.4
* COC(=O)Nc1ccc(-c2nc3c(c(=O)n(C)c(=O)n3C)n2-c2ccc(OC)cc2)cc1 | 4.2
* COc1ccc(-n2c(-c3ccc(NC(C)=O)cc3)nc3c2c(=O)n(C)c(=O)n3C)cc1F | 2.8

Next item in the queue.
Problem: Provide the documented IC50 with MCF7 as the system for CC(=O)Nc1ccc(-c2nc3c(c(=O)n(C)c(=O)n3C)n2-c2cccc(F)c2)cc1
Result: 1.7

====

measurement.notes: Inhibition of PI3K assessed as amount of ADP produced preincubated with compound and L-alpha-phosphatidylinositol for 5 mins by Glo Max luminescent kinase assay
# maps each entry to its log10 of IC50
The base-10 logarithm of IC50, taken with IC50 in µM, is what appears here.

Consider the following illustrative entries.
* COc1ccc(-n2c(-c3cncc(NS(=O)(=O)c4ccc(C)cc4)c3)nc3c2c(=O)n(C)c(=O)n3C)cc1 | -0.66
* COc1ccc(-n2c(-c3ccc(NC(C)=O)cc3)nc3c2c(=O)n(C)c(=O)n3C)cc1F | -1.51
* CN(C)c1ccc(-c2nc3c(c(=O)n(C)c(=O)n3C)n2-c2cccc(F)c2)cc1 | 1.30
* CN(C)c1ccc(-c2nc3c(c(=O)n(C)c(=O)n3C)n2-c2cc(F)cc(F)c2)cc1 | 1.40
* COc1ccc(-n2c(-c3ccc(NC(C)=O)cc3)nc3c2c(=O)n(C)c(=O)n3C)cc1OC | -0.29

Next item in the queue.
Problem: Fill blank: measured log10 of IC50 of the compound COc1ccc(-n2c(-c3cncc(NS(C)(=O)=O)c3)nc3c2c(=O)n(C)c(=O)n3C)cc1 is ____.
Result: 0.65

====

measurement.notes: Inhibition of PI3K assessed as amount of ADP produced preincubated with compound and L-alpha-phosphatidylinositol for 5 mins by Glo Max luminescent kinase assay
# maps each entry to its pIC50
To interpret pIC50, take it as minus log10 of a concentration measured in moles per litre.

• CC(=O)Nc1ccc(-c2nc3c(c(=O)n(C)c(=O)n3C)n2-c2ccc(C)cc2)cc1 = 6.43
• COc1ccc(-n2c(-c3ccc(N(C)C)cc3)nc3c2c(=O)n(C)c(=O)n3C)cc1OC = 4.60
• COc1ccc(-n2c(-c3ccc(N(C)C)cc3)nc3c2c(=O)n(C)c(=O)n3C)cc1F = 4.66
• COc1ccc(-n2c(-c3ccc(NC(C)=O)cc3)nc3c2c(=O)n(C)c(=O)n3C)cc1 = 6.82
• CC(=O)Nc1ccc(-c2nc3c(c(=O)n(C)c(=O)n3C)n2-c2ccc(Cl)c(Cl)c2)cc1 = 6.55
• COc1ccc(-n2c(-c3ccc(N(C)C)cc3)nc3c2c(=O)n(C)c(=O)n3C)cc1 = 4.66
• COc1cc(N(C)C)ccc1-c1nc2c(c(=O)n(C)c(=O)n2C)n1-c1cccc(F)c1 = 4.66
• COc1cc(NC(C)=O)ccc1-c1nc2c(c(=O)n(C)c(=O)n2C)n1-c1ccc(Cl)c(Cl)c1 = 4.89

Problem: Fill blank: measured pIC50 of the compound COc1ccc(-n2c(-c3cncc(NS(=O)(=O)c4ccccc4)c3)nc3c2c(=O)n(C)c(=O)n3C)cc1 is ____.
Result: 7.04

Problem: Fill blank: measured pIC50 of the compound CC(=O)Nc1ccc(-c2nc3c(c(=O)n(C)c(=O)n3C)n2-c2cccc(F)c2)cc1 is ____.
Result: 7.17

Problem: Fill blank: measured pIC50 of the compound COc1cc(N(C)C)ccc1-c1nc2c(c(=O)n(C)c(=O)n2C)n1-c1cc(F)cc(F)c1 is ____.
Result: 4.82

Problem: Fill blank: measured pIC50 of the compound CNC(=O)Nc1ccc(-c2nc3c(c(=O)n(C)c(=O)n3C)n2-c2ccc(OC)c(F)c2)cc1 is ____.
Result: 7.77

====

measurement.notes: Inhibition of PI3K assessed as amount of ADP produced preincubated with compound and L-alpha-phosphatidylinositol for 5 mins by Glo Max luminescent kinase assay
# maps each entry to its IC50

• COc1ccc(-n2c(-c3cnccc3NS(C)(=O)=O)nc3c2c(=O)n(C)c(=O)n3C)cc1 = > 30 µM
• CC(=O)Nc1ccc(-c2nc3c(c(=O)n(C)c(=O)n3C)n2-c2ccccc2)cc1 = 12.5 µM
• COc1ccc(-n2c(-c3ccc(NC(C)=O)c(OC)c3)nc3c2c(=O)n(C)c(=O)n3C)cc1F = 8.5 µM
• COc1ccc(-n2c(-c3cccc(NS(C)(=O)=O)c3)nc3c2c(=O)n(C)c(=O)n3C)cc1 = 3.2 µM
• COC(=O)Nc1ccc(-c2nc3c(c(=O)n(C)c(=O)n3C)n2-c2ccc(OC)cc2)cc1 = 0.21 µM

Problem: Fill blank: measured IC50 of the molecule CN(C)c1ccc(-c2nc3c(c(=O)n(C)c(=O)n3C)n2-c2ccc(Cl)c(Cl)c2)cc1 is ____.
Result: > 30 µM
